target-of-assay: SIX1 homeodomain (reference allele) (human, UniProt Q15475 108-198)
Sequence: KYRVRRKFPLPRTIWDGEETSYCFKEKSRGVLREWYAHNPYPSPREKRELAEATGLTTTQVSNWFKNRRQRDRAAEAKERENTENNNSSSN
experimental-details: universal protein binding microarray; Universal all-10-mer PBM (8x60K, AMADID 030236), 300 nM GST-tagged protein, Alexa Fluor 488 anti-GST; buffer, salt, pH and temperature not stated (as in Berger); high values mean tight binding
experimental-context: protein: ivt; tags: N-terminal GST; dsDNA, one strand shown
In all, about 33,000 sequences were measured (“e-score”: median about -0.053, highest 2% from about 0.38 on). The sample as a whole holds a higher share of the highest values than the screen did.
The entries below are paired with their reported binding signal.
The response must be a number in E-score with no trailing unit.

Below, 2 sequences whose answers are already recorded.
>>> quantitative_result("CCATATCA")
0.472
>>> quantitative_result("TATCAGAA")
0.354

Tell me measured binding signal for `ATCAACCC` please. 0.336

Identify the reported binding signal for the following entry. `AGAATATC` 0.283

# return recorded binding signal for input `GATCCGAC` 0.389

State its binding signal: `TATCCGGA` 0.391

Identify binding signal associated with the sequence `AGCATATA` 0.239

====

binding signal reference
target-of-assay: SIX1 homeodomain (reference allele) (human, UniProt Q15475 108-198)
Sequence: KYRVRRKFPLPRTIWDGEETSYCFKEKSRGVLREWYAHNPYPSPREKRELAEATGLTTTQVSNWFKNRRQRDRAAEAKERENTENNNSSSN
experimental-details: universal protein binding microarray; Universal all-10-mer PBM (8x60K, AMADID 030236), 300 nM GST-tagged protein, Alexa Fluor 488 anti-GST; buffer, salt, pH and temperature not stated (as in Berger); high values mean tight binding
experimental-context: protein: ivt; tags: N-terminal GST; dsDNA, one strand shown
Over roughly 33,000 sequences, “e-score” has its median near -0.053; the highest 2% begin near 0.38. The list comes from a sample in which the highest values are over-represented; it also holds close analogues and randomly drawn sequences.
Please respond with the number in E-score and leave the unit unwritten.

For orientation, consider the following solved cases.
>>> quantitative_result("ACAGGGAT")
0.297
>>> quantitative_result("GGAGATTA")
0.197

Supply recorded binding signal for `ACAATACG` here. 0.25

Using the record for `ATAATACA` , state its measured binding signal. 0.302

Give binding signal for the following sequence: `ATCACCGG` 0.291

Specify reported binding signal for the sequence shown: `ATCGGTGA` 0.232

Quick one: give measured binding signal for `ATAGGGGA` 0.287

Determine from records and report binding signal for `ATATAAGG` 0.189

# return recorded binding signal for entry `ATCACGTC` 0.189

Find the measured binding signal of `ATAGCTAC` and report it. 0.163

====

target-of-assay: SIX1 homeodomain (reference allele) (human, UniProt Q15475 108-198)
Sequence: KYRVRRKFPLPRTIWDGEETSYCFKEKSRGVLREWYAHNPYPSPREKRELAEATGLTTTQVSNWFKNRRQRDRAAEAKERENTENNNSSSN
experimental-details: universal protein binding microarray; Universal all-10-mer PBM (8x60K, AMADID 030236), 300 nM GST-tagged protein, Alexa Fluor 488 anti-GST; buffer, salt, pH and temperature not stated (as in Berger); high values mean tight binding
experimental-context: protein: ivt; tags: N-terminal GST; dsDNA, one strand shown
Over roughly 33,000 sequences, “e-score” has its median near -0.053; the highest 2% begin near 0.38. The list comes from a sample in which the highest values are over-represented; it also holds close analogues and randomly drawn sequences.
measured-property: binding signal
Be sure to follow the number with its unit.

Example cases with answers are listed next.
>>> result("TATCGAGA")
"0.293 E-score"
>>> result("AAGATATG")
"0.303 E-score"

Turning to the following sequence.
Retrieve binding signal measured for `ATCATTAC` and print it. 0.295 E-score

====

target-of-assay: SIX1 homeodomain (reference allele) (human, UniProt Q15475 108-198)
Sequence: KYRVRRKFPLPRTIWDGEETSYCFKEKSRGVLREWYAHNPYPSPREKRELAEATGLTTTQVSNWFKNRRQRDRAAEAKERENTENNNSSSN
experimental-details: universal protein binding microarray; Universal all-10-mer PBM (8x60K, AMADID 030236), 300 nM GST-tagged protein, Alexa Fluor 488 anti-GST; buffer, salt, pH and temperature not stated (as in Berger); high values mean tight binding
experimental-context: protein: ivt; tags: N-terminal GST; dsDNA, one strand shown
Over roughly 33,000 sequences, “e-score” has its median near -0.053; the highest 2% begin near 0.38. The full list was thinned out, with the highest values kept by preference.
Item-by-item account of binding signal
Reply with the number, then its unit.

Some entries whose results are on file:
>>> result("ATCGAAGA")
"0.293 E-score"
>>> result("GATCCCCA")
"0.387 E-score"
>>> result("GAGATCTA")
"0.172 E-score"
>>> result("GATTATGA")
"0.205 E-score"
>>> result("ATCCATCG")
"0.246 E-score"

Answer with the recorded binding signal of `TATCTGAA` only. 0.153 E-score

State its binding signal: `ATCGCACG` 0.207 E-score

Please give measured binding signal of the following entry: `CCGATATC` 0.457 E-score

Using known records, supply binding signal for `GATATGAA` 0.259 E-score

Determine its reported binding signal: `GATTAATA` 0.301 E-score

Provide binding signal value for the following sequence: `CCCCTTCC` 0.164 E-score

Please indicate binding signal recorded for `GATCCCAC` 0.379 E-score

State its binding signal: `ATCCTGTC` 0.228 E-score

Given the sequence `GTTAGATA` , write its reported binding signal. 0.248 E-score

# return recorded binding signal for input `ATACATTA` 0.223 E-score

Give a short answer stating reported binding signal for `AGCGGATA` . 0.364 E-score

Determine from records and report binding signal for `ACCCAGCT` 0.181 E-score

Fill in binding signal for record `GATCCCAA` 0.275 E-score

Identify binding signal associated with the sequence `CATAGATC` 0.249 E-score

Provide measured binding signal value, entry: `CGGATAAC` 0.339 E-score

====

target-of-assay: SIX1 homeodomain (reference allele) (human, UniProt Q15475 108-198)
Sequence: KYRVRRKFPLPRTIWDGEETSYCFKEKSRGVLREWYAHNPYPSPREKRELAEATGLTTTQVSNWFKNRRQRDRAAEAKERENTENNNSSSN
experimental-details: universal protein binding microarray; Universal all-10-mer PBM (8x60K, AMADID 030236), 300 nM GST-tagged protein, Alexa Fluor 488 anti-GST; buffer, salt, pH and temperature not stated (as in Berger); high values mean tight binding
experimental-context: protein: ivt; tags: N-terminal GST; dsDNA, one strand shown
The full ranking holds about 33,000 sequences; the median of “e-score” is about -0.053, and the highest 2% start at about 0.38. The entries come from a sample that favours the highest values as a whole.
One threshold, 0.3 E-score, splits the recorded binding signal values: lower ones are Fulfilled, equal or higher ones are Not fulfilled.

Example entries and their recorded answers appear below.
>>> class_assignment("ATGGTGTC")
"Not fulfilled"
>>> class_assignment("GAACGATA")
"Not fulfilled"
>>> class_assignment("ACGCATCT")
"Fulfilled"
>>> class_assignment("TAGTGTGA")
"Fulfilled"
>>> class_assignment("GTCCGATA")
"Not fulfilled"
>>> class_assignment("AAACACCC")
"Fulfilled"
>>> class_assignment("GCATATGA")
"Fulfilled"
>>> class_assignment("GCTATCTA")
"Fulfilled"
>>> class_assignment("ATACGGTC")
"Fulfilled"
>>> class_assignment("CTGGTGTC")
"Not fulfilled"

Regarding `GATCGGAA` , kindly confirm whether its binding signal is beneath 0.3 E-score. Fulfilled

Determine if `ACACCTCT` shows binding signal strictly lower than 0.3 E-score. Fulfilled

# check: binding signal < 0.3 E-score for `GGACACCC` Not fulfilled

Is binding signal strictly under 0.3 E-score for the entry `ATGGTGTG` ? Fulfilled

In the record for `ATACGATC` , is binding signal less than 0.3 E-score? Not fulfilled

Take the sequence `CAGGATTA` and say whether its binding signal is less than 0.3 E-score. Fulfilled

Confirm or reject: binding signal of `TAGAGATA` lies strictly below 0.3 E-score Fulfilled

Could you please tell me whether binding signal recorded for `GAACGATC` is less than 0.3 E-score? Fulfilled

Threshold test, binding signal < 0.3 E-score: `TATCGATA` Not fulfilled

====

target-of-assay: SIX1 homeodomain (reference allele) (human, UniProt Q15475 108-198)
Sequence: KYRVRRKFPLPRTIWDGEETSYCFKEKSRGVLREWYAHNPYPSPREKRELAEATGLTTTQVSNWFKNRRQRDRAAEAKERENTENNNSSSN
experimental-details: universal protein binding microarray; Universal all-10-mer PBM (8x60K, AMADID 030236), 300 nM GST-tagged protein, Alexa Fluor 488 anti-GST; buffer, salt, pH and temperature not stated (as in Berger); high values mean tight binding
experimental-context: protein: ivt; tags: N-terminal GST; dsDNA, one strand shown
Whole data set: some 33,000 sequences, median “e-score” near -0.053, cut for the highest 2% near 0.38. This is one part of a sample in which the highest values are shown more often than they occur.
Mark Criterion met for reported binding signal of 0.3 E-score or greater; mark Criterion not met for anything smaller.

>>> class_assignment("GTATCCCA")
"Criterion met"
>>> class_assignment("CTATCCCC")
"Criterion met"
>>> class_assignment("ATATCCCC")
"Criterion met"

Hi team, for `CTATCCCA` , is the recorded binding signal at or above 0.3 E-score? Criterion not met

Is binding signal for `AGTAAGAT` at or above 0.3 E-score? Criterion not met

API: above_or_equal(metric=binding signal, cutoff=0.3 E-score) for item `CATATGAG` Criterion not met

State whether the measured binding signal reaches 0.3 E-score, counting equality as reaching it, for `AGCGATAT` Criterion met

Confirm if binding signal reported for the sequence `CGCGACAC` is 0.3 E-score or above. Criterion not met

Could you please find out whether `ATAAATAC` has binding signal that meets 0.3 E-score or exceeds it? Criterion not met

Check the entry `CTACTATA` : does binding signal equal or exceed 0.3 E-score? Criterion not met

Decide: is the reported value of binding signal for `CAATCCCG` equal to or greater than 0.3 E-score? Criterion not met

Decide: binding signal of `ATGGCATC` >= 0.3 E-score? Criterion not met

binding signal >= 0.3 E-score for `AGCGATAC` ? Criterion met

Please tell me: is the sequence `ATATCCCG` at or over 0.3 E-score in terms of binding signal? Criterion met
